Where do these numbers come from? They come from patent US11547704B2.

Tested on: ATF4 translation
Test: ATF4 cell based assay (ATF4 reporter assay, NanoLuc luciferase fused to 5'-UTR of ATF4)
Conditions: SH-SY5Y-ATF4-NanoLuc cells challenged with Thapsigargin for 14-18 hours; average of a set of two or more experimental runs; read-out: average ATF4 pathway inhibitory activity (IC50)
propertyMeasured: IC50

>>> df
                                   compound  propertymeasured  measuredvalue
0  O=C(COc1ccc(Cl)cc1)NC1CCN(CCCOc2ccc(Cl)cc2)C(C(=O)O)C1 (stereo not shown)              IC50         172 nM
1  O=C(NCCc1ccc(Cl)cc1)C1CCN(C(=O)COc2ccc(Cl)cc2)CC1              IC50         201 nM
2  O=C(NCCOc1ccc(Cl)cc1)C1CCN(CCOc2ccc(Cl)cc2)CC1              IC50      > 1000 nM

Consider now this further compound.
Data request: Query: IC50; subject: O=C(COc1ccc(Cl)cc1)NC1CCN(CC(O)COc2ccc(Cl)cc2)CC1 (stereo not shown)
Data returned: 32 nM
